Ref: patent US7553867B2

readout-label: melting point

Recorded result, `Cc1oc(-c2ccc(C(F)(F)F)cc2)cc1COc1ccc2sc(CSC(C)(C)C(=O)O)cc2c1` , melting point: 158 to 159 °C

Recorded result, Cc1cc(OCc2cc(-c3ccc(C(F)(F)F)cc3)oc2C)ccc1CC(C)C(=O)O (centres unmarked) , melting point: 96 to 97 °C

Recorded result, `Cc1oc(-c2ccc(C(F)(F)F)cc2)cc1CCOc1ccc(OCC(=O)O)cc1` , melting point: 132 to 133 °C

Recorded result, `Cc1cc(OCCCc2cc(-c3ccc(C(F)(F)F)cc3)oc2C)ccc1CCC(=O)O` , melting point: 125 to 126 °C

Recorded result, `Cc1oc(-c2ccc(C(F)(F)F)cc2)cc1COc1cccc(OCC(=O)O)c1` , melting point: 118 to 119 °C

====

molecular target: human GPR40 (Homo sapiens); assay: Receptor function regulating action (agonist action) for GPR40, intracellular calcium by FLIPR in CHO cells; conditions: CHO cells expressing human GPR40; change of fluorescence intensity at 30 seconds after reaction initiation
Sequence (O14842 whole entry): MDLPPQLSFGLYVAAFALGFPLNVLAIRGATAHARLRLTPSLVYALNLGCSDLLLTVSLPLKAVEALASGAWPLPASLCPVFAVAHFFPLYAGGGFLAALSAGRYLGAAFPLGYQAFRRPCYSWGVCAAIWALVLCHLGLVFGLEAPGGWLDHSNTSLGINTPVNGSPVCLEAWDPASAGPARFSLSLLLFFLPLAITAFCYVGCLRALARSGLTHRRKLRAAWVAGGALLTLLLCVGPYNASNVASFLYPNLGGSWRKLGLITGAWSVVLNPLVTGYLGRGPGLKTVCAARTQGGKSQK
readout-label: pEC50
Reminder that pEC50 means the negative base-10 logarithm of the concentration expressed in mol/L.

Recorded result, `COc1cc(OCc2cc(-c3ccc(C(F)(F)F)cc3)oc2C)ccc1CCC(=O)O` , pEC50: 6.80

Recorded result, `CCCCc1oc(-c2ccc(C(F)(F)F)cc2)cc1COc1ccc(CCC(=O)O)c(C)c1` , pEC50: 6.24

Recorded result, `CCCCC/C=C\C/C=C\C/C=C\CCCCC(=O)O` , pEC50: 5.70

Recorded result, `Cc1oc(-c2ccc(C(F)(F)F)cc2)cc1COc1ccc(OCC(=O)O)cc1` , pEC50: 6.54

====

Would you mind telling me the reported melting point of each entry?

Recorded result, `Cc1cc(OCCc2cc(-c3ccc(C(F)(F)F)cc3)oc2C)ccc1CCC(=O)O` , melting point: 118 to 120 °C

Recorded result, `COc1ccc(-c2cc(COc3cccc(CSC(C)(C)C(=O)O)c3)c(C)o2)cc1` , melting point: 96 to 97 °C

Recorded result, `Cc1oc(-c2ccc(C(F)(F)F)cc2)cc1CCCOc1ccc(OCC(=O)O)cc1` , melting point: 134 to 135 °C

Recorded result, `Cc1cc(OCc2cc(-c3ccc(F)cc3)oc2C)ccc1CCC(=O)O` , melting point: 123 to 125 °C

Recorded result, `Cc1oc(-c2ccccc2C(F)(F)F)cc1COc1ccc(SC(C)(C)C(=O)O)cc1` , melting point: 115 to 116 °C

Recorded result, `Cc1nc(SCc2cc(-c3ccc(F)cc3)oc2C)sc1CC(=O)O` , melting point: 202 to 205 °C

Recorded result, `CCc1oc(-c2ccc(C(F)(F)F)cc2)cc1CCCOc1cc(CC(=O)O)ccc1F` , melting point: 91 to 93 °C

Recorded result, `Cc1oc(-c2ccc(C(F)(F)F)cc2)cc1/C=C\c1ccc(OC(C)(C)C(=O)O)cc1` , melting point: 117 to 118 °C

Recorded result, `COc1cc(CC(=O)O)ccc1OCc1cc(-c2ccc(C(F)(F)F)cc2)oc1C` , melting point: 139 to 140 °C

Recorded result, `CCc1oc(-c2ccc(C(F)(F)F)cc2)cc1CCCOc1ccc(CC(=O)O)cc1Cl` , melting point: 112 to 113 °C

Recorded result, Cc1oc(-c2ccc(C(F)(F)F)cc2)cc1COc1cccc(C(C)SC(C)(C)C(=O)O)c1 (stereo not drawn) , melting point: 75 to 77 °C

Recorded result, `CCc1oc(-c2ccc(C(F)(F)F)cc2)cc1CCCOc1ccc(C(C)(C)C(=O)O)cc1` , melting point: 102 to 103 °C

Recorded result, COC(Cc1ccc(OCc2cc(-c3ccc(C(F)(F)F)cc3)oc2C)cc1C)C(=O)O (stereo not drawn) , melting point: 125 to 126 °C

Recorded result, `CCCCc1oc(-c2ccc(C(F)(F)F)cc2)cc1CCCOc1ccc(CC(=O)O)cc1` , melting point: 96 to 97 °C

Recorded result, `Cc1oc(-c2ccc(C(F)(F)F)cc2)cc1COc1ccc(OCC(=O)O)cc1` , melting point: 168 to 169 °C

Recorded result, `Cc1oc(-c2ccccc2)cc1COc1cccc(CSC(C)(C)C(=O)O)c1` , melting point: 113 to 114 °C

Recorded result, `CCc1oc(-c2ccc(C(F)(F)F)cc2)cc1CCCOc1cc(CC(=O)O)ccc1Cl` , melting point: 104 to 105 °C

Recorded result, `Cc1oc(-c2ccc(C(F)(F)F)cc2)cc1COc1ccc2oc(CC(=O)O)cc2c1` , melting point: 140 to 142 °C

Recorded result, `Cc1cc(-c2ccc(C(F)(F)F)cc2)oc1COc1ccc(OC(C)(C)C(=O)O)cc1` , melting point: 116 to 117 °C

Recorded result, `Cc1oc(-c2ccc(C(F)(F)F)cc2)cc1COc1cccc(CSC2(C(=O)O)CCC2)c1` , melting point: 121 to 122 °C

Recorded result, `Cc1oc(-c2cccc(F)c2)cc1COc1ccc(SC(C)(C)C(=O)O)cc1` , melting point: 146 to 147 °C

Recorded result, Cc1oc(-c2ccc(F)cc2)cc1COc1cccc(C(C)SC(C)(C)C(=O)O)c1 (stereo not drawn) , melting point: 89 to 90 °C

Recorded result, `CCc1oc(-c2ccc(C(F)(F)F)cc2)cc1CCCOc1ccc(OC)c(CC(=O)O)c1` , melting point: 138 to 139 °C

Recorded result, `Cc1oc(-c2cccc(C(F)(F)F)c2)cc1COc1cccc(CSC(C)(C)C(=O)O)c1` , melting point: 81 to 82 °C

Recorded result, `CCc1oc(-c2ccc(C(F)(F)F)cc2)cc1COc1ccc(CCC(=O)O)c(C)c1` , melting point: 95 to 97 °C

Recorded result, `CCc1oc(-c2ccc(C(F)(F)F)cc2)cc1CCCOc1cc(CC(=O)O)ccc1OC` , melting point: 137 to 138 °C

Recorded result, `COc1cc(OCc2cc(-c3ccc(C(F)(F)F)cc3)oc2C)ccc1CC(=O)O` , melting point: 168 to 169 °C

Recorded result, `Cc1oc(-c2ccc(C(F)(F)F)cc2)cc1CCCOc1ccc(SC(C)(C)C(=O)O)cc1` , melting point: 127 to 128 °C

Recorded result, `Cc1nc(CCc2cc(-c3ccc(C(F)(F)F)cc3)oc2C)oc1CC(=O)O` , melting point: 120 to 121 °C

Recorded result, `Cc1oc(-c2ccc(C(F)(F)F)cc2)cc1CC(=O)Nc1cccc(CSCC(=O)O)c1` , melting point: 173 to 174 °C

Recorded result, `Cc1nc(SCCc2cc(-c3ccc(F)cc3)oc2C)sc1CC(=O)O` , melting point: 124 to 126 °C

Recorded result, `Cc1oc(-c2ccc(F)cc2)cc1COc1cccc(COCC(=O)O)c1` , melting point: 109 to 110 °C

Recorded result, `O=C(O)CSCc1cccc(NC(=O)c2ccc(-c3ccc(Cl)cc3)o2)c1` , melting point: 173 to 174 °C

====

Would you mind telling me the reported melting point of each entry?

Recorded result, `Cc1oc(-c2ccc(C(F)(F)F)cc2)cc1CCCCOc1ccc(OC(C)(C)C(=O)O)cc1` , melting point: 67 to 69 °C

Recorded result, `Cc1oc(-c2ccc(C(F)(F)F)cc2)cc1COc1cc(CSC(C)(C)C(=O)O)ccc1F` , melting point: 120 to 123 °C

Recorded result, `CCc1oc(-c2ccc(C(F)(F)F)cc2)cc1CCCOc1ccc(F)c(CC(=O)O)c1` , melting point: 128 to 129 °C

Recorded result, `CCc1oc(-c2ccc(C(F)(F)F)cc2)cc1CCCOc1nn(CC(=O)O)c2ccccc12` , melting point: 139 to 140 °C

Recorded result, `Cc1oc(-c2ccc(Cl)cc2)cc1COc1ccc(SC(C)(C)C(=O)O)cc1` , melting point: 130 to 131 °C

Recorded result, `Cc1oc(-c2ccc(C(F)(F)F)cc2)cc1COc1cccc(-c2cccc(CC(=O)O)c2)c1` , melting point: 128 to 129 °C

Recorded result, `CCCN(C(=O)c1cc(-c2ccc(F)cc2)oc1C)c1cccc(CSCC(=O)O)c1` , melting point: 140 to 141 °C

Recorded result, `O=C(O)CSCc1cccc(OCc2cc(-c3ccccc3)oc2C(F)(F)F)c1` , melting point: 84 to 85 °C

Recorded result, `CCc1oc(-c2ccc(C(F)(F)F)cc2)cc1CCCOc1cccc(CC(=O)O)c1C` , melting point: 109 to 110 °C

Recorded result, `Cc1oc(-c2ccc(C(F)(F)F)cc2)cc1COc1cccc(COC(C)(C)C(=O)O)c1` , melting point: 95 to 96 °C

Recorded result, CCC(Cc1ccc(OCc2cc(-c3ccc(C(F)(F)F)cc3)oc2C)cc1C)C(=O)O (stereo not shown) , melting point: 118 to 119 °C

Recorded result, CCCC(SCc1cccc(OCc2cc(-c3ccc(C(F)(F)F)cc3)oc2C)c1)C(=O)O (stereo not shown) , melting point: 61 to 62 °C

Recorded result, `Cc1oc(-c2ccc(C(F)(F)F)cc2)cc1COc1ccc(C(C)(C)C(=O)O)cc1` , melting point: 105 to 107 °C

Recorded result, `CCc1oc(-c2ccc(C(F)(F)F)cc2)cc1CCCOc1cccc(CC(=O)O)c1F` , melting point: 92 to 93 °C

Recorded result, `CCCCc1oc(-c2ccc(C(F)(F)F)cc2)cc1CCC(=O)Nc1cccc(CSCC(=O)O)c1` , melting point: 137 to 138 °C

Recorded result, `CCc1oc(-c2ccc(C(F)(F)F)cc2)cc1CCCOc1cccc(C(C)(C)C(=O)O)c1` , melting point: 94 to 95 °C
